Observed pIC50 values for PI3Kδ (Homo sapiens (Human), UniProt O00329) are listed in what follows.
By convention, pIC50 is the negative base-10 log of a molar concentration.

Examples with their reported pIC50 follow.
• COc1ncc(-c2nc(N3CCOCC3)nc3c(CN4CCN(C(C)(C)C)CC4)csc23)cc1NS(C)(=O)=O [Compound 34] = 8.47
• COc1ncc(-c2nc(N3CCOCC3)nc3c(CN4CCC(N(C)C)CC4)csc23)cc1NS(C)(=O)=O [Compound 43] = 8.40

Now take the following compound into account.
[Q] Recall the recorded pIC50 for COc1ncc(-c2nc(N3CCOCC3)nc3c(CN4CCN(C(=O)CO)CC4)c(C)sc23)cc1NS(C)(=O)=O [Compound 71] with PI3Kδ (Homo sapiens (Human), UniProt O00329) and state it.
Sequence (O00329 whole entry): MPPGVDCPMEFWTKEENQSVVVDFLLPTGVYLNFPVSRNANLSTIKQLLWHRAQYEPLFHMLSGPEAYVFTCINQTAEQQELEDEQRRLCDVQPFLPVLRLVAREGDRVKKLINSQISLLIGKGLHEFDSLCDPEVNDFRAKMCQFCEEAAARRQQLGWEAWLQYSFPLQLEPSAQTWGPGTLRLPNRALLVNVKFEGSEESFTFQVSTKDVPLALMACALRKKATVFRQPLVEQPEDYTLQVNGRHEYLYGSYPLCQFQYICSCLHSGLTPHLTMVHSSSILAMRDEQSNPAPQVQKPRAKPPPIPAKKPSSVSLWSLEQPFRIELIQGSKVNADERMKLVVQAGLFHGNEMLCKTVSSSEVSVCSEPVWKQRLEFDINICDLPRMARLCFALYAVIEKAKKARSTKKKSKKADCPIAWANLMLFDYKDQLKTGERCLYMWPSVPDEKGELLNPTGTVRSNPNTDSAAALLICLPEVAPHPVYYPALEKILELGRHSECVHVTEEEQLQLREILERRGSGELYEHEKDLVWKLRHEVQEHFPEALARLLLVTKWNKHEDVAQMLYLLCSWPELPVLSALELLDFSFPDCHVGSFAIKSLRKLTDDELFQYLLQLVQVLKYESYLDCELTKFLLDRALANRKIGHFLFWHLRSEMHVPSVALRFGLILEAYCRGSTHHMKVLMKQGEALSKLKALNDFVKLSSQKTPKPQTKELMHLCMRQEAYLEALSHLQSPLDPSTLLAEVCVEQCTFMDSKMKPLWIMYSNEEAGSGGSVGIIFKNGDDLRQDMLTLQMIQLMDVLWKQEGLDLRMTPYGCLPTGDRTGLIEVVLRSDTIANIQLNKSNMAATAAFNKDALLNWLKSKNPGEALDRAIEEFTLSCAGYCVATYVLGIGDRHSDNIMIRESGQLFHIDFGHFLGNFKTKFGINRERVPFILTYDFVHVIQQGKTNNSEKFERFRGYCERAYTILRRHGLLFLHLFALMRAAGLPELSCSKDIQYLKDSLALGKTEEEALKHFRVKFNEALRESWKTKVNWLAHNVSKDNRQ
Sequence (P27986 whole entry partner): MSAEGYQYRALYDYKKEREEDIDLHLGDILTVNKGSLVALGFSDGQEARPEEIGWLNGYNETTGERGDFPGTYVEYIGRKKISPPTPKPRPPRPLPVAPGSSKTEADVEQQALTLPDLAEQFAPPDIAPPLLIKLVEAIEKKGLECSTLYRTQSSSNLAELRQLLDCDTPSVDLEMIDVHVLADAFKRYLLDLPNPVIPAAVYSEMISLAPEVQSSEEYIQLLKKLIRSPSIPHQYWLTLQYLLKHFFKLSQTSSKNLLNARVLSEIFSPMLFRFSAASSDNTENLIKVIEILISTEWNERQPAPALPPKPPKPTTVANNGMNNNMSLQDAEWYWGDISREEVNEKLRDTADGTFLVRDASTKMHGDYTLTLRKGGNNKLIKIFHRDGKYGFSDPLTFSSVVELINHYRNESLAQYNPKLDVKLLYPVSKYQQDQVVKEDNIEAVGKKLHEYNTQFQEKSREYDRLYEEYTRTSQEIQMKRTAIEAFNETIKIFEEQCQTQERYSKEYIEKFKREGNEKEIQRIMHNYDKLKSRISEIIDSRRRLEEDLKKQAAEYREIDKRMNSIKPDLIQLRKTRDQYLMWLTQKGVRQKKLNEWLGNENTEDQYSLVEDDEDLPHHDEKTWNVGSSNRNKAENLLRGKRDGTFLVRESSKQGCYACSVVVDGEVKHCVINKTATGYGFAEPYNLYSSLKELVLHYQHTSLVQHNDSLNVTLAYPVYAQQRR
[A] 8.17
